target: PI3K (p110α/p85α) (Homo sapiens, UniProt P42336); construct: purchased Carna Biosciences 07CBS-0402A; test: PI3K activity assay (ADP Hunter Plus); assay type: biochemical; settings: read-out: PI3K alpha activity, IC50 (semi-quantitative class)
Sequence (P42336 whole entry): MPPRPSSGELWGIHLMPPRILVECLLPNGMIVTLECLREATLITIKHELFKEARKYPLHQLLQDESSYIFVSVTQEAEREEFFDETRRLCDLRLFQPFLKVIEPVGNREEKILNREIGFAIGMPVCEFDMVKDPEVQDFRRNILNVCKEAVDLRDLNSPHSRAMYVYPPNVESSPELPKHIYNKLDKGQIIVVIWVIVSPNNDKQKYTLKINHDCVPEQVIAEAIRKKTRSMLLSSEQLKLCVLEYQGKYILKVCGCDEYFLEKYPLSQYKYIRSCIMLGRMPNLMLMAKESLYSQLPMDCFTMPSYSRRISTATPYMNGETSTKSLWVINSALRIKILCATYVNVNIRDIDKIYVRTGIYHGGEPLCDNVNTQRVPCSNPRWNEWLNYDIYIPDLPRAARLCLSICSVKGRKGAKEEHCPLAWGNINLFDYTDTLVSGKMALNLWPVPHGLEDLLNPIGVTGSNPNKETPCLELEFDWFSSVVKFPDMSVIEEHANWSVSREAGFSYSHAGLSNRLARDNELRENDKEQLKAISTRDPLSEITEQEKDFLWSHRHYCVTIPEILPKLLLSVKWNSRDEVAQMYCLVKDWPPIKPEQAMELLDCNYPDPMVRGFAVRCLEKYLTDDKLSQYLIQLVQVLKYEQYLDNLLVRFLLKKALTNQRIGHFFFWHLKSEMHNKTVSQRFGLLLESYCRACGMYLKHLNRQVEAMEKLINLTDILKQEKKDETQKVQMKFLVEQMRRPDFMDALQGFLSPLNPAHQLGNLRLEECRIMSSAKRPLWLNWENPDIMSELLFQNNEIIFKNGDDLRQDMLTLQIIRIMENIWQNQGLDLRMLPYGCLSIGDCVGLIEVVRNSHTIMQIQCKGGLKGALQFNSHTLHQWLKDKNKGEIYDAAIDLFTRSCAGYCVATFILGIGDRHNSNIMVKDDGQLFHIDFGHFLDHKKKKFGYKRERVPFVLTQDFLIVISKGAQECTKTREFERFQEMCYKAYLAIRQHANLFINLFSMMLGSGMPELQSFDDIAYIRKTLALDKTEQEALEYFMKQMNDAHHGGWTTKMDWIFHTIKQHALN
Sequence (P27986 whole entry partner): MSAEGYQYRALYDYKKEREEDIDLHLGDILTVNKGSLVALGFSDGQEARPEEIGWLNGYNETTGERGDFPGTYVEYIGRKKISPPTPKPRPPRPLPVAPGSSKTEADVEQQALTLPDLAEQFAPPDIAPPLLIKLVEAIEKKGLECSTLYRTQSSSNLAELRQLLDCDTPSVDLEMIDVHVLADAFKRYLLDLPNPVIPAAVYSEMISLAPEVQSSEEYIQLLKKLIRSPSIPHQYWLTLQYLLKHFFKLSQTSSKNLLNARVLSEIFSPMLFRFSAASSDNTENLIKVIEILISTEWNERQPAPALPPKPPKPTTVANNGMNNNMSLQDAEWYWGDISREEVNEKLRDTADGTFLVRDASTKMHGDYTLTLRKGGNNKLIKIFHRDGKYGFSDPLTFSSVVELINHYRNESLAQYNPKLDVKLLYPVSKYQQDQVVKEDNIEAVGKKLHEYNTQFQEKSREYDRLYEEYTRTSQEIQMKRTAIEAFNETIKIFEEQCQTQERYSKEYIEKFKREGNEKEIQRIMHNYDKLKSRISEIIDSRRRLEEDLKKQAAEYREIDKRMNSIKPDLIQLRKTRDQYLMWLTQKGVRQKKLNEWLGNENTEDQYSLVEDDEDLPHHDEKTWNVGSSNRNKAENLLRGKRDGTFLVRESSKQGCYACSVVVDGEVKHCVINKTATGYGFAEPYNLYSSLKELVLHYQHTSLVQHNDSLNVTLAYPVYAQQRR

| MOL | IC50 |
| --- | --- |
| COc1ncc2cc1NS(=O)(=O)c1cccc(c1)C(=O)NCCn1cc(cn1)-c1ncnc3c1SC2=C3 | 100 to 1000 nM |
| COc1ncc2cc1NS(=O)(=O)c1cccc(c1)C(=O)NCCn1cc(cn1)-c1ncnc3ccc-2cc13 | < 100 nM |
| COc1ncc2cc1NS(=O)(=O)c1cccc(c1)C(=O)NCc1cccc(c1)-c1ncnc3sc-2cc13 | < 100 nM |
| COc1ncc2cc1NS(=O)(=O)c1cc(cc(C(F)(F)F)c1)C(=O)NCc1cncc(c1)-c1ncnc3c1SC2=C3 | > 1000 nM |
